Recorded binding signal values for a group of binders are listed next.
Target: T1, UNK ZnF1-3 (human, UniProt Q9C0B0 31-174)
T1 sequence: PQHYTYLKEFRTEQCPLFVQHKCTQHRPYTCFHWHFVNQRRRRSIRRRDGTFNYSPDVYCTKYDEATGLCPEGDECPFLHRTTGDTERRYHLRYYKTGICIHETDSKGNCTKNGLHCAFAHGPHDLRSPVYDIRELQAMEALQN
Assay: nsRBNS (natural sequence RNA bind-n-seq); RBNS binding buffer (assumed for nsRBNS): 25 mM Tris pH 7.5, 150 mM KCl, 3 mM MgCl2, 0.01% Triton X-100, 500 ug/ml BSA, 20 U/ml SUPERase-In, 4 C; UNK is unkempt and MSI1 is Musashi-1; names of the RNAs are library labels; protein concentration not given here; high values mean tight binding
The full ranking holds about 24,000 sequences; the median of “enrichment r” is about 0.99, and the highest 2% start at about 3.7. This excerpt belongs to a sample that is enriched for the highest values.
Please respond with the number in enrichment R and leave the unit unwritten.

Worked cases, binding signal given:
# BINDER, ENDPOINT UNIT, TEST RESULT
measured = [
    ("chr1:150192741:150192742:-_ENSG00000143401_ENST00000314136|hu_hu|motif|central (ssRNA) RNA: GGGAGUUCUACAGUCCGACGAUCUUAAUUAUGGGCUAAAAAUGACUAAUACAGUAAGCUUGAAUUUAAAAAAUUAAGUCGGAAUAAAUUGCUAGGGAAUUCCACAAUGGGAGUCAAUGAAAAUUUUUCUCUACAUACAAUAUGCAACAGAGGAUUGAGCAUCA", "enrichment R", 6.83),
    ("180848183_180848303_6210_CDS_ENSMUSG00000026494_ENSMUST00000161017|mouse|control|control (ssRNA) RNA: GGGAGUUCUACAGUCCGACGAUCAUUGGACCUUUUCUUUUGGUUUUUGAGGCUCCUGCAUCUCCCUCCCACGGAGCUGCUGUUCUCGCUCAUGGAGUCCUGGGCUGAGGAUGCACUGCCGGUGGCCUCGCUGUCUCUCAUCAUCAACAGAGGAUUGAGCAUCA", "enrichment R", 0.445),
]

Here is the next item to consider.
Q. binding signal for chr1:150192741:150192742:-_ENSG00000143401_ENST00000314136|hu_hu|FALSE|FALSE (ssRNA) RNA: GGGAGUUCUACAGUCCGACGAUCUUAAUUAUGGGCUAAAAAUGACUAAUACAGUAAGCUUGAAUUUAAAAAAUUAAGUCUAAAUAAAUUGCUAGGGAAUUCCACAAUGGGAGUCAAUGAAAAUUUUUCUCUACAUACAAUAUGCAACAGAGGAUUGAGCAUCA ?
A. 4.88
